# Protocol details: Multiple-ascending-dose phase 1 study: plasma and urine pharmacokinetics
# Type: in vivo, humans
# Assay context: human, plasma, iv, 200 mg, 200 mg IV once weekly x2, day 1, sampling interval 144 h, arithmetic mean
Numbered stars: 1 amine (or outer) side, 2 acyl side, 3 side chain; on linkers, the order of the positions; unused ones are H or OH. Bridge positions count the residues as written; N and C are the ends. Square brackets hold non-standard residues; d marks the D form. Peptide text beside a SMILES is read from it. * marks the point of attachment. Orn(4R-OH,5R-OCH2CH2NMe3+) = C[N+](C)(C)CCO[C@@H](N[*:3])[C@H](O)C[C@H](N[*:1])C(=O)[*:2]; pTerphenylCO(4''-OnC5H11) = CCCCCOc1ccc(-c2ccc(-c3ccc(C(=O)*)cc3)cc2)cc1; hTyr(3S-OH,4S-OH) = N[C@H](C(=O)O)[C@H](O)[C@@H](O)c1ccc(O)cc1; Pro(3S-OH,4S-Me) = C[C@H]1CN[C@H](C(=O)O)[C@H]1O; Hyp = O=C(O)[C@@H]1C[C@@H](O)CN1
Endpoint name: half-life (days)
// units = days; emit number, no label

Which value of half-life has been reported for CCCCCOc1ccc(-c2ccc(-c3ccc(C(=O)N[C@H]4C[C@@H](O)[C@@H](OCC[N+](C)(C)C)NC(=O)[C@@H]5[C@@H](O)[C@@H](C)CN5C(=O)[C@H]([C@@H](C)O)NC(=O)[C@H]([C@H](O)[C@@H](O)c5ccc(O)cc5)NC(=O)[C@@H]5C[C@@H](O)CN5C(=O)[C@H]([C@@H](C)O)NC4=O)cc3)cc2)cc1 [CD101] ({pTerphenylCO(4''-OnC5H11)}-[Orn(4R-OH,5R-OCH2CH2NMe3+)]T[Hyp][hTyr(3S-OH,4S-OH)]T[Pro(3S-OH,4S-Me)]; lactam 1-C) in the records?
3.39

* * *

# Protocol details: Multiple-ascending-dose phase 1 study: plasma and urine pharmacokinetics
# Assay type: in vivo, humans
# Assay context: human, plasma, iv, 400 mg, 400 mg IV once weekly x3, day 15, sampling interval 480 h, arithmetic mean
Numbered stars: 1 amine (or outer) side, 2 acyl side, 3 side chain; on linkers, the order of the positions; unused ones are H or OH. Bridge positions count the residues as written; N and C are the ends. Square brackets hold non-standard residues; d marks the D form. Peptide text beside a SMILES is read from it. * marks the point of attachment. Orn(4R-OH,5R-OCH2CH2NMe3+) = C[N+](C)(C)CCO[C@@H](N[*:3])[C@H](O)C[C@H](N[*:1])C(=O)[*:2]; pTerphenylCO(4''-OnC5H11) = CCCCCOc1ccc(-c2ccc(-c3ccc(C(=O)*)cc3)cc2)cc1; hTyr(3S-OH,4S-OH) = N[C@H](C(=O)O)[C@H](O)[C@@H](O)c1ccc(O)cc1; Pro(3S-OH,4S-Me) = C[C@H]1CN[C@H](C(=O)O)[C@H]1O; Hyp = O=C(O)[C@@H]1C[C@@H](O)CN1
Endpoint name: half-life (h)
// units = h; emit number, no label

Which value of half-life has been reported for CCCCCOc1ccc(-c2ccc(-c3ccc(C(=O)N[C@H]4C[C@@H](O)[C@@H](OCC[N+](C)(C)C)NC(=O)[C@@H]5[C@@H](O)[C@@H](C)CN5C(=O)[C@H]([C@@H](C)O)NC(=O)[C@H]([C@H](O)[C@@H](O)c5ccc(O)cc5)NC(=O)[C@@H]5C[C@@H](O)CN5C(=O)[C@H]([C@@H](C)O)NC4=O)cc3)cc2)cc1 [CD101] ({pTerphenylCO(4''-OnC5H11)}-[Orn(4R-OH,5R-OCH2CH2NMe3+)]T[Hyp][hTyr(3S-OH,4S-OH)]T[Pro(3S-OH,4S-Me)]; lactam 1-C) in the records?
152
